Reported pIC50 values are given for each entry in this list.
- System: P. falciparum strain Dd2
- ASSAY DETAILS: Growth inhibition assay, asexual blood stages
- Type: cell-based, Plasmodium falciparum
- EXPERIMENTAL CONDITIONS: Supplementary Table 8; read-out: In vitro IC50
Interpret pIC50 as the negative base-10 log of the concentration measured in mol/L.

N=C(c1cccc(NC(=O)Nc2ccc(S(=O)(=O)c3ccc(Br)cc3)cc2)c1)N1CCC(O)CC1 = 7.17

The record that follows has no pIC50 shown yet.
Noted for "N=C(c1cccc(NC(=O)Nc2ccc(S(=O)(=O)NCc3ccc(S(N)(=O)=O)cc3)cc2)c1)N1CCNCC1" : its pIC50 reads 7.00

The reported numbers originate from paper PMC5290327.
